Listed next: entries and their corresponding z-score.
assay-method-text: growth effects on S. cerevisiae YJM789 – YJM789 clinical isolate, OD600, 24 h, basal, primary screen (AID 1089);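 further: growth of clinical yeast isolate S. cerevisiae YJM 789 seeded 1000 cells per well; test concentration not given here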
experimental-setup: higher = more signal, called active from +8 up or from −8 down
Calls of active or inactive are those of the source.

- structure-string: "CCC[C@@H]1C[C@@]1(CCC)[C@@H](NC(=O)c1ccco1)c1ccc(Cl)cc1"
  z-score: "0.349 (inactive)"
- structure-string: "C=C(C(=O)CC[C@H](OC(=O)c1cccnc1)c1ccc(OCCO)cc1)C(C)C"
  z-score: "0.366 (inactive)"
- structure-string: "CCOC(=O)C1=CC[C@@H](c2cccc(Br)c2)N(S(=O)(=O)c2ccc(C)cc2)[C@H]1c1ccc([N+](=O)[O-])cc1"
  z-score: "-0.412 (inactive)"
- structure-string: "COC(=O)C(CC#Cc1ccc2c(c1)[C@]1(C(=O)N2)[C@H](c2ccc(OCCO)cc2)N2[C@H](c3ccccc3)[C@H](c3ccccc3)OC(=O)[C@H]2[C@@H]1C(=O)O)C(=O)OC"
  z-score: "2.49 (inactive)"
- structure-string: "CO[C@H]1O[C@H](CO)[C@@H](OC(=O)c2ccc(Br)cc2)[C@@H]2OC(=O)[C@H](Cc3cccc(Br)c3)C/C=C/C[C@@H](Cc3cccc(Br)c3)C(=O)O[C@@H]12"
  z-score: "-0.73 (inactive)"
- structure-string: "COCCOC(=O)N1C(=O)[C@@]2(c3cc(C#Cc4ccc(OC)cc4)ccc31)[C@H](C(=O)N1CCc3cc(OC)c(OC)cc3C1)[C@H]1C(=O)O[C@H](c3ccccc3)[C@H](c3ccccc3)N1[C@@H]2c1ccc(O)cc1"
  z-score: "1.99 (inactive)"
